# MEASUREMENT_NOTES: Primary qHTS for inhibitors of nuclear receptor binding SET domain protein 2 (NSD2) in an isogenic RCH-ACV NSD2 p.E1099K mutant (9B) (AID 1645876); also: nearly all actives have a fitted effect of over 70% in size
# SETUP_CONDITIONS: RCH-ACV (leukaemia line) NSD2 E1099K (9B) viability, CellTiter-Glo, 72 h; series mostly up to 44.9 µM
Records with an inconclusive call do not appear. Calls of active or inactive are those of the source. Calls follow the shape of the dose curve; as a rule, active = well fitted inhibition curve with a large enough effect; inconclusive = small, poorly fitted or top-dose-only effect; inactive = flat fitted curve, though single readings scatter. *1 amine or outer side, *2 acyl side, *3 side chain or, on linkers, in order; H or OH if unused. Where a SMILES comes first, the peptide text is derived from it. [ ]: non-standard residue; d: D form. X7 = O=C([C@@H](CC(O)CCl)O[*:1])[*:2]; aIle = CC[C@@H](C)[C@H](N)C(=O)O; NMeV = CN[C@H](C(=O)O)C(C)C; NMeA = CN[C@@H](C)C(=O)O; βAla = NCCC(=O)O
Outcomes: T = active, F = inactive

[[record]]
compound = "CC1=CC(=O)[C@@H](O)[C@]2(C)C3[C@@H](O)[C@@H]4OC(=O)[C@@H]([C@H]4C)[C@]3(C)C(=O)C[C@@H]12 (some centres not stated)"
assigned_label = "T"

[[record]]
compound = "CN1CCc2cc3c(cc2C1C1OC(=O)c2c1ccc1c2OCO1)OCO3 (configuration not stated)"
assigned_label = "F"

[[record]]
compound = "COC1C(O)C(C)OC(OC2C(CO)O[C@@H](O[C@@H]3CC4CCC5C(CC[C@]6(C)[C@@H](C7=CC(=O)OC7)CC[C@]56O)[C@@]4(C)[C@H](OC(C)=O)C3)C(O)C2O)C1O (some centres not stated)"
assigned_label = "T"

[[record]]
compound = "CC(=O)O[C@H]1C[C@]2(O)[C@@H]3CC[C@@H]4C[C@@H](O)CC[C@]4(C)[C@H]3CC[C@]2(C)[C@H]1c1ccc(=O)oc1"
assigned_label = "T"

[[record]]
compound = "CO[C@H]1C[C@H](O[C@H]2CC[C@]3(C=O)[C@H]4CC[C@]5(C)[C@@H](C6=CC(=O)OC6)CC[C@]5(O)[C@@H]4CC[C@]3(O)C2)O[C@H](C)[C@H]1O"
assigned_label = "T"

[[record]]
compound = "CCC(C)(O)C1(C(=O)O)COC(=O)C1 (configuration not stated)"
assigned_label = "F"

[[record]]
compound = "C[C@]12CC[C@H](O)C[C@@H]1CC[C@@H]1[C@@H]2CC[C@]2(C)C(=O)CC[C@@H]12"
assigned_label = "F"

[[record]]
compound = "CN(C)[C@@H]1C(=O)C(C(N)=O)=C(O)[C@@]2(O)C(=O)C3=C(O)c4c(O)ccc(Cl)c4[C@@](C)(O)C3C[C@@H]12 (some centres not stated)"
assigned_label = "F"

[[record]]
compound = "C=CCN1CC[C@]23c4c5ccc(O)c4O[C@H]2[C@@H](O)CC[C@@]3(O)[C@H]1C5"
assigned_label = "F"

[[record]]
compound = "c1cncc(OC[C@@H]2CCN2)c1"
assigned_label = "F"

[[record]]
compound = "Cc1c(Cl)c(OCC(=O)N2CCN(C)CC2)nc2sc(C(=O)NC3CC3)c(N)c12"
assigned_label = "F"

[[record]]
compound = "C=C(C)[C@@]12O[C@@H]1[C@@]1(C)C(=CC2=O)CC[C@@H](OC(C)=O)[C@@H]1C"
assigned_label = "T"

[[record]]
compound = "C[C@@H](CN1CCC2(CC1)C(=O)NCN2c1cccc(F)c1)NC(=O)c1ccc(Br)cc1"
assigned_label = "T"

[[record]]
compound = "CCCCOC(=O)c1ccnc2cc(C(OCCN3CCCCC3)c3ccccc3Cl)sc12 (configuration not stated)"
assigned_label = "T"

[[record]]
compound = "C[C@]12CCC(=O)C=C1CC[C@@H]1[C@@H]2[C@@H](O)C[C@]2(C)C(=O)CC[C@@H]12"
assigned_label = "F"

[[record]]
compound = "CO[C@@H]1[C@@H](O)[C@@H](O[C@H]2CC[C@]3(C=O)C4CC[C@]5(C)[C@@H](C6=CC(=O)OC6)CC[C@]5(O)[C@@H]4CC[C@H]3C2)O[C@@H](C)[C@H]1O[C@@H]1O[C@H](CO[C@@H]2O[C@H](CO)[C@@H](O)[C@H](O)[C@H]2O)[C@@H](O)[C@H](O)[C@H]1O (some centres not stated)"
assigned_label = "T"

[[record]]
compound = "CC(C)(O)/C=C/C(=O)[C@](C)(O)[C@H]1[C@H](O)C[C@@]2(C)[C@@H]3CC=C4[C@@H](C[C@H](O)C(=O)C4(C)C)[C@]3(C)C(=O)C[C@]12C"
assigned_label = "T"

[[record]]
compound = "COC1CC(O[C@H]2CC[C@]3(C=O)C4CC[C@]5(C)[C@@H](C6=CC(=O)OC6)CC[C@]5(O)[C@@H]4CC[C@@H]3C2)OC(C)C1O[C@@H]1O[C@H](CO)[C@@H](O[C@@H]2O[C@H](CO)[C@@H](O)[C@H](O)[C@H]2O)[C@H](O)[C@H]1O (some centres not stated)"
assigned_label = "T"

[[record]]
compound = "C[C@]12CC[C@H](O[C@@H]3O[C@H](CO)[C@@H](O)[C@H](O)[C@H]3O)CC1CC[C@@H]1C2CC[C@]2(C)[C@@H](C3=CC(=O)OC3)CC[C@]12O (some centres not stated)"
assigned_label = "T"

[[record]]
compound = "CC12CCC3C(C1)c1c(cc(O)c(C(=O)c4ccccc4)c1OC3(C)C)O2 (configuration not stated)"
assigned_label = "F"

[[record]]
compound = "C[C@]12CC[C@@H](O[C@@H]3O[C@H](CO)[C@@H](O)[C@H](O)[C@H]3O)C[C@@]1(O)CCC1C2CC[C@]2(C)[C@@H](C3=CC(=O)OC3)CC[C@]12O (some centres not stated)"
assigned_label = "T"

[[record]]
compound = "C[C@@H]1[C@H](O)[C@@H](C)/C=C/C=C/CC/C=C/C=C/C=C/C=C/[C@H](O[C@H]2O[C@@H](C)[C@H](O)[C@@H](N)[C@H]2O)C[C@@H]2O[C@](O)(C[C@@H](O)[C@H](O)CC[C@@H](O)C[C@@H](O)C[C@@H](O)CC(=O)O[C@H]1C)C[C@H](O)[C@H]2C(=O)O"
assigned_label = "F"

[[record]]
compound = "CC1=CC2/C=C(\\C)CCCC(O)/C=C/C(=O)OC23C(=O)NC(CC(C)C)C3C1C (configuration not stated)"
assigned_label = "F"

[[record]]
compound = "CCOC(=O)c1ccnc2cc(C(OCCN3CCCCC3)c3ccccc3Cl)sc12 (configuration not stated)"
assigned_label = "T"

[[record]]
compound = "CC[C@@H](C)[C@@H]1NC(=O)[C@@H]2CCCN2C(=O)[C@@H](CC(O)CCl)OC(=O)CCNC(=O)[C@H](C)N(C)C(=O)[C@H](C(C)C)N(C)C1=O (some centres not stated) (cyclo([NMeA][βAla][X7]P[aIle][NMeV]))"
assigned_label = "T"

[[record]]
compound = "CO[C@H]1C[C@H](O[C@H]2CC[C@]3(CO)[C@H]4CC[C@]5(C)[C@@H](C6=CC(=O)OC6)CC[C@]5(O)[C@@H]4CC[C@]3(O)C2)O[C@H](C)[C@H]1O"
assigned_label = "T"

[[record]]
compound = "O=C1NC(=O)c2c1c1c3ccccc3n3c1c1c2c2ccccc2n1C1CCC3O1"
assigned_label = "T"

